Cited source for all entries: patent US20220089727A1

target: T1, human CD47 (analyte in the Biacore assay) (human, UniProt Q08722 19-139, limits assumed); experiment: SPR (Biacore T200), antibody captured by anti-mouse Fc, human CD47 as analyte
T1 construct: also called human CD47 protein
MEASURE: koff (s⁻¹)
The answer is to be given in s⁻¹; state only the numeric part.

059-1.51.2 (antibody, mouse IgM, V domains shown, Mouse hybridoma antibody; light chain type kappa) VH: EVQLQQSGPELVKPGASVKMSCKASGYTFTNYVMHWMKQKPGQGLEWIGYINPYNDDTKYNEKFKDRATLTSDKSSSTAYMELSSLTSEDSAVYYCAKGGYYSMDYWGQGTSVTVSS VL: DVVMTQTPLSLPVSLGDQASISCRSSQSLVHSKGNTYLHWYLQKPGQSPKLLIYKVSNRFSGVPDRFSGSGSGTDFTLKISRVEAEDLGVYFCSQSTHVPFTFGSGTKLEIK; 0.0101

Let us move to another entry and its koff.
Report koff for 059-1.20.1 (antibody, mouse IgG1, V domains shown, also called 059-1.20.1 purified antibody) VH: EVQLQQSGPELVKPGASVNMSCKASGYTFTNYFLHWVKQKPGQGLEWIGYINPYNDGTNYNENFKGKATLTSDKSSSTAYMELSSLTSEDSAVYYCAKGGWFSMDYWGQGTSVTVSS VL: DVVMTQTPLSLPVSLGDQASISCRSSQSLVHSNGKTYLQWYLQKPGQSPKLLIYKVSNRFSGVPDRFSGSGSGTDFTLKISRVEAEDLGVYFCSQSTHVYTFGGGTKLEIK please.
0.00548
